Source: patent US4814340A

Tested on: green rice leafhopper (female adults)
Assay: Test 2 (Effect on Green Rice Leafhopper)
Assay type: in vivo
Settings: Nephotettix cincticeps; 20 ppm; 48 hours; female adults; read-out: Mortality (%)
Method: Compounds (a) through (g) described below were tested as comparative compounds in the same manner as the compounds of the present invention. All the tests were doubly carried out. Namely, each result was expressed by an average value of two data. Four or five seedlings of paddy rice with three leaves were bundled, and thereon the same dilution of the emulsifiable concentrate as used in Test 1 was sprayed in an amount of 3 ml. […] 48 hours after, the number of killed adults was counted.
Hi there, I'd appreciate the recorded mortality at 20 ppm for every entry that follows.
// note: answer is a bare numeric in %

For the molecule shown here, CCOc1ccc(C2(CCCc3cccc(Oc4ccccc4)c3)CCC2)cc1 [Compound 31] , give the reported mortality at 20 ppm.
100

Quick one: mortality at 20 ppm for CCOc1ccc(C(C)(C)CCCc2ccc(F)c(Oc3ccc(F)cc3)c2)cc1 [Compound 55] ?
100

Which mortality at 20 ppm is listed for CC(C)(CCCc1cccc(Oc2ccccc2)c1)c1ccc(Br)cc1 [Compound 47] ?
75

Recorded mortality at 20 ppm of C#CCOc1ccc(C(C)(C)CCCc2cccc(Oc3ccccc3)c2)cc1 [Compound 45] , please.
80

Would you kindly share the measured mortality at 20 ppm for COc1ccc(C(C)(C)CCCc2cccc(Oc3ccccc3)c2)cc1 [Compound 5] ?
100

GET /values?readout=mortality at 20 ppm&item= CC(C)(CCCc1cccc(Oc2ccccc2)c1)c1cccc(C(F)(F)F)c1 [Compound 2]
80

Item CC(C)(CCCc1ccc(F)c(Oc2ccccc2)c1)c1ccc(OC(F)(F)C(F)F)cc1 [Compound 66] has what recorded mortality at 20 ppm?
100

What value of measured mortality at 20 ppm is listed for CC(C)Oc1ccc(C(C)(C)CCCc2cccc(Oc3ccccc3)c2)cc1 [Compound 9] ?
100

Given CCOc1ccc(C(C)(C)CCCc2cccc(Oc3ccccc3)c2)cc1OCC [Compound 28] , state its recorded mortality at 20 ppm.
80

* * *

Tested on: common cutworm (third-instar larvae)
Experiment: Test 1 (Effect on Common Cutworm)
Assay type: in vivo
Settings: Spodoptera litura; 20 ppm; 48 hours; third-instar larvae; read-out: Mortality (%)
I'd appreciate it if you marked entries 1 (yes) when mortality at 20 ppm is lower than 70% and 0 (no) when it is not.

State whether 70% exceeds mortality at 20 ppm recorded for CC(C)(CCCc1cccc(Oc2ccccc2)c1)c1ccc(Cl)cc1 .
0 (no)

Say whether its mortality at 20 ppm is strictly beneath 70%. Entry: C#CCOc1ccc(C(C)(C)CCCc2cccc(Oc3ccccc3)c2)cc1
0 (no)

Quick check: mortality at 20 ppm of CC(C)(CCCc1ccc(F)c(Oc2ccccc2)c1)c1ccc(OC(F)(F)C(F)F)cc1 under 70%?
0 (no)

API: query returns whether the compound falls strictly under 70% in mortality at 20 ppm. Query: CCOc1ccc(C(C)(C)CCCc2cccc(Oc3ccccc3)c2)cc1
0 (no)

Consider the compound CC(C)(CCCc1ccc(F)c(Oc2ccccc2)c1)c1ccccc1 . Is its mortality at 20 ppm strictly less than 70%?
0 (no)

Hi there! Is mortality at 20 ppm for CC(C)(CCCc1cccc(Oc2ccccc2)c1)c1ccccc1 below 70%, do you know?
1 (yes)

Hi there! Is mortality at 20 ppm for CC(C)(CCC(C#N)c1cccc(Oc2ccccc2)c1)c1ccc(Cl)cc1 (stereo not drawn) below 70%, do you know?
1 (yes)

Given the entry CCOc1ccc(C(C)(C)CCCc2ccc(F)c(Oc3ccc(F)cc3)c2)cc1 , would its reported mortality at 20 ppm be below 70%?
0 (no)

I'd appreciate it if you could check whether CC(C)(CCCc1ccc(F)c(Oc2ccccc2)c1)c1ccc(Cl)cc1 has mortality at 20 ppm smaller than 70%.
0 (no)

is_below(mortality at 20 ppm, 70%) for COc1ccc(C(C)(C)CCCc2ccc(F)c(Oc3ccccc3)c2)cc1 ?
0 (no)

Here's an entry: CC(C)(CCCc1ccc(F)c(Oc2ccccc2)c1)c1ccc(OC(F)F)cc1 . Is its mortality at 20 ppm below 70%?
0 (no)

Record CCOc1ccc(C(C)(C)CCCc2ccc(F)c(Oc3ccc(F)cc3)c2)cc1Cl : is its mortality at 20 ppm strictly below 70%?
1 (yes)

For CC(C)Oc1ccc(C(C)(C)CCCc2cccc(Oc3ccccc3)c2)cc1 , is the recorded mortality at 20 ppm below the cut-off of 70%?
0 (no)

Is it true that mortality at 20 ppm reported for CC(C)(CCCc1cccc(Oc2ccccc2)c1)c1ccc2c(c1)OCO2 is less than 70%?
0 (no)

Below 70% on mortality at 20 ppm? Entry CC(C)(CCCc1cccc(Oc2ccccc2)c1)c1ccc(OC(F)(F)CCl)cc1
0 (no)

Dear colleague, could you confirm whether mortality at 20 ppm of CCOC(=O)c1ccc(C(C)(C)CCCc2cccc(Oc3ccccc3)c2)cc1 falls below 70%? Thanks.
1 (yes)

* * *

Test system: green rice leafhopper (female adults)
Assay: Test 2 (Effect on Green Rice Leafhopper)
Format: in vivo
Details: Nephotettix cincticeps; 20 ppm; 48 hours; female adults; read-out: Mortality (%)
Kindly supply the reported mortality at 20 ppm values for the records listed here.
Lab book: enter the figure in %, no units written.

Requested field: mortality at 20 ppm. Item: CCOc1ccc(C(C)(C)CCCc2cccc(Oc3ccccc3)c2)cc1
100

Record request: mortality at 20 ppm value, item CC(C)(CCCc1ccc(F)c(Oc2ccccc2)c1)c1ccccc1
100

# get_value(readout='mortality at 20 ppm', item= CCOc1ccc(C(C)(C)CCCc2ccc(F)c(Oc3ccccc3)c2)cc1 )
100

Please report the recorded mortality at 20 ppm for CC(C)(CCCc1cccc(Oc2ccccc2)c1)c1ccc(OC(F)F)cc1 .
100

Fill in the blank: the reported mortality at 20 ppm of CCOc1ccc(C(C)(C)CCCc2ccc(F)c(Sc3ccccc3)c2)cc1 is ____.
100

Consider the compound CC(C)(CCCc1cccc(Oc2ccccc2)c1)c1ccc(Oc2ccccc2)cc1 and give its measured mortality at 20 ppm.
100

# query: mortality at 20 ppm of entry C#CC(CCC(C)(C)c1ccc(OCC)cc1)c1ccc(F)c(Oc2ccccc2)c1 (stereo not drawn)
60

Need mortality at 20 ppm of CC(C)(CCCc1cccc(Oc2ccccn2)c1)c1ccc(Cl)cc1 , thanks.
75

Quick one: mortality at 20 ppm for CCCOc1ccc(C(C)(C)CCCc2cccc(Oc3ccccc3)c2)cc1 ?
100

* * *

Tested on: yearling carps
Test: Test 5 (Fish Toxicity)
Assay type: in vivo, carp
Details: 1 ppm in water
Where a name gives a salt, the structure may show the parent alone.
Please go through the items and note down their Mortality(%) 48 Hours After.

Would you mind telling me what Mortality(%) 48 Hours After value was observed for CC(C)(CCCc1cccc(Oc2ccccc2)c1)c1cccc(Cl)c1 [Compound 21] ?
0%

Quick one: Mortality(%) 48 Hours After for CC(C)(CCCc1cccc(Oc2ccccc2)c1)c1ccc(Cl)cc1 [Compound 8] ?
0%

Need Mortality(%) 48 Hours After, item Oc1c(Cl)c(Cl)c(Cl)c(Cl)c1Cl [(f), PCP sodium salt, reference compound]
100%

What value of Mortality(%) 48 Hours After has been recorded for this entry: CCCOc1ccc(C(C)(C)CCCc2cccc(Oc3ccccc3)c2)cc1 [Compound 33]
0%

What value of measured Mortality(%) 48 Hours After is listed for CC(C)(CCCc1cccc(Oc2ccccc2)c1)c1ccc(OC(F)(F)CCl)cc1 [Compound 35] ?
0%

* * *

System: green rice leafhopper (female adults)
Assay: Test 2 (Effect on Green Rice Leafhopper)
Type: in vivo
Conditions: Nephotettix cincticeps; 20 ppm; 48 hours; female adults; read-out: Mortality (%)
MEASURED_METRIC: mortality at 20 ppm
Answer as a quantity: numeral, then unit.

Reported mortality at 20 ppm for CC(C)(CCCc1cccc(Oc2ccccc2)c1)c1ccccc1 [Compound 17] : what is it?
95%

Record request: mortality at 20 ppm value, item CCC(C)(CCCc1cccc(Oc2ccccc2)c1)c1ccc(Cl)cc1 (stereo not drawn) [Compound 7]
65%

Bench note: what mortality at 20 ppm did CCOc1ccc(C(C)(C)CCCc2cccc(C(=O)c3ccccc3)c2)cc1Br [Compound 13] show?
40%
